System: PPARg:RXRa (NR concentration 180 nM, RXRa partner concentration 90 nM)
protocol: PBM binding z-score (relative to random genomic background probes); higher = stronger binding; sequences stand for … in GC…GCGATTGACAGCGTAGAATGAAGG
Exercise: state measured PBM binding z-score for each of the sequences provided.
# output: bare number, no unit

stdin: Param item = TGTCCAAGTTCAAAGGTAACGTAAGTATCCACAC ; retrieve measured PBM binding z-score.
stdout: 4

stdin: Which PBM binding z-score is listed for CCTATTAGTTGACTATAAGGGCAACCGAAGCTCG ?
stdout: 0.445

stdin: If you can, please state the reported PBM binding z-score value of CTCGAAAGGTCGTACTCAGGTGAGTATACCAAAC .
stdout: 2.86

stdin: Reported PBM binding z-score for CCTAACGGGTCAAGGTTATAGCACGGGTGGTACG : what is it?
stdout: 3.41

stdin: # query: PBM binding z-score of entry CCTTACAGGTCACTCCAGGTTATAGCATCGGAGT
stdout: 3.81

stdin: Quick check: PBM binding z-score of ATCGAAAGGTCGACGAGGTGAGCATACACCGTTT ?
stdout: 2.93

stdin: Data request, read-out PBM binding z-score, for ATATGTAGGTTAGCTGGGGTCATTCATACTAGGC
stdout: 5.98

stdin: Find the recorded PBM binding z-score belonging to AATACAGTGTCACTAGGCCAGAGTAGGTACGAAT and report it.
stdout: 1.82

stdin: For CCCAGCAGGCCAATCTGGGTCACTCAAGGCTTGA , what is its reported PBM binding z-score?
stdout: 1.76

stdin: Recorded PBM binding z-score for TCTAGATGGTCACGGAGGTCACACACGACGGGTA , please?
stdout: 3.59
